System: Fam108b (Abhd17b) serine hydrolase [Mus musculus]
Assay: mouse Fam108b serine hydrolase inhibitors, confirmation, counter-screen for RBBP9 inhibitor project, biochemical, fluorescence polarization, triplicate (AID 1978);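 note: 0% = median of active Fam108b wells and 100% = catalytically dead S170A mutant; inhibitors free the probe so polarization falls as inhibition rises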
Conditions: recombinant Fam108b, FP-Rh probe fluorescence polarization; at 9.51 µM; hits give high values
This is one part of the list.
Label true (1) when inhibition is at or above 20%; anything below gets false (0).

Answered examples (6):
INSERT INTO results (molecule, qualitative_label) VALUES
  ('C/C(=C\c1ccco1)C1Nc2cccc3cccc(c23)N1', 'true (1)'),
  ('COc1ccccc1C1C(C#N)=C(N)Oc2c1c(-c1ccccc1)nn2-c1ccccc1 (stereo not given)', 'false (0)'),
  ('Oc1ccc(C2Nc3cccc4cccc(c34)N2)cc1', 'false (0)'),
  ('COc1ccc(/C=C/C(=O)OCC(=O)Nc2cccc(Oc3ccccc3)c2)c(OC)c1', 'true (1)'),
  ('Cc1ccc(C2C3=C(Nc4[nH]n(-c5ccccc5)c(=O)c42)c2ccccc2C3=O)cc1 (stereo not given)', 'true (1)'),
  ('COc1ccc(NS(=O)(=O)c2cc(NC(=O)CC(=O)c3ccc([N+](=O)[O-])cc3)ccc2C)cc1', 'true (1)');

Request: Could you tell me if the measured inhibition of `CSc1c(SCc2ccccc2)cnn(Cc2ccccc2)c1=O` reaches 20% or more?
Result: false (0)

Request: Could you tell me if the measured inhibition of `O=C(N/N=C/c1sc(N2CCCCC2)nc1-c1cccs1)c1cccnc1` reaches 20% or more?
Result: false (0)

Request: Could you tell me if the measured inhibition of `O=C(NC1CC1)c1ccc(-c2ccccc2)cc1` reaches 20% or more?
Result: false (0)

Request: Could you tell me if the measured inhibition of COc1ccc(-c2nc(CS(=O)CC(=O)NCc3ccccn3)c(C)o2)cc1 (stereo not given) reaches 20% or more?
Result: true (1)
